Test system: KM12
Test: NCI tumour cell line growth inhibition, 48 h
Activity calls are given as the source filed them. No stated cut-off is given here; in the data, active = GI50 up to about 1.1 µM and inactive = higher.
Readout Kind: GI50

compound="CCCCCCCCCCCCCCCCCCN(C)C(COC)COP(=O)([O-])OCC[N+](C)(C)C (stereo not given)" assay_system=KM12 obs_value="1.66 µM (inactive)"
compound=Nc1c(C(=O)O)nnc2cc(Cl)c(Cl)cc12 assay_system=KM12 obs_value="> 100 µM (inactive)"
compound="CO[C@@H](C(=O)OC1C=CC2(CC1)C(=O)N(C)c1ccccc12)c1ccccc1 (stereo not given in full)" assay_system=KM12 obs_value="> 100 µM (inactive)"
compound=O=[PH](O)c1cc2c3ccccc3ccc2c2ccccc12 assay_system=KM12 obs_value="> 100 µM (inactive)"

Could you now look at the following compound, please?
Can you look up GI50 on KM12 for COC(=O)[C@@H]1N2C(=S)N(c3ccccc3)C(=O)[C@H]2SC1(C)C ?
> 100 µM (inactive)

----------
Form field: GI50 (one value per entry).
System: HCT-15
Please respond with the number in µM and leave the unit unwritten.

line_notation=CC(C)=CCc1[nH]c2ccccc2c1C1=C(O)C(=O)C(c2c(CC=C(C)C)[nH]c3ccccc23)=C(O)C1=O assay_system=HCT-15 readout_kind=GI50 unit_symbol=µM obs_value=1.33
line_notation=C=CCN1COc2c(cc3c4c(cccc24)C(=O)O3)C1 assay_system=HCT-15 readout_kind=GI50 unit_symbol=µM obs_value=29.2
line_notation=O=C(/C=C/c1ccccc1Cl)c1ccc(Cl)c(Cl)c1 assay_system=HCT-15 readout_kind=GI50 unit_symbol=µM obs_value=15.7
line_notation=CSC1=NN=C(SC)NN1 assay_system=HCT-15 readout_kind=GI50 unit_symbol=µM obs_value=0.169

Request - read-out GI50 | tested on HCT-15 | molecule CN(C)C(=S)/N=c1\ssc(=S)n1C1CCCCC1
33.1

----------
Tested on: HCT-116
Experiment: NCI tumour cell line growth inhibition, 48 h
Active and inactive are the calls of the source. Rule as the data show it: active = GI50 up to about 1.1 µM and inactive = higher.
Select the correct class. Options are active, inactive and nothing else.

compound=O=C(O)c1cccc(/C=C/c2ccccc2)c1 answer_label=inactive
compound="CCc1cccc(C(C)C)c1NC(=O)C(=O)C(C(=O)C(=O)OC)c1nc2ccccc2nc1O (stereo unspecified)" answer_label=inactive
compound=CNC1=C/C(=N/C2=CC(=N/C(=C\C#N)C(C)(C)O)/OC2(C)C)OC1(C)C answer_label=inactive
compound=Cc1cccc2[s+]snc12 answer_label=inactive
compound="CCOC(=O)C(C)NC(=O)NC12CC3CC(CC(F)(C3)C1)C2 (stereo unspecified)" answer_label=inactive
compound=COC(=O)/C=C(/C(=O)OC)c1c(C)c(C)c2c(C)cc(C)cc(C)c1-2 answer_label=inactive
compound="CCOC(=O)C(NC(=O)c1ccccc1)(c1ccc(S(=O)(=O)Nc2onc(C)c2C)cc1)C(F)(F)F (stereo unspecified)" answer_label=inactive
compound=CC(=O)c1cc2c(s1)C(=O)c1ccsc1C2=O answer_label=active

Recorded call for COc1ccc(C2SCC(=O)N2c2ccc(-c3ccc(-n4c(-c5ccccc5)nc5ccccc5c4=O)cc3)cc2)cc1 (stereo unspecified) ?
inactive

And the next one, Cc1nnc([C@@]2(C)CC[C@H]3[C@@H](CCC4=CC(=O)CC[C@@]43C)[C@@H]2CC#N)o1 ?
inactive

Thanks! And COC(=O)C1C(=O)NC2(C)CC1c1ccccc1O2 (stereo unspecified) ?
inactive

Same lookup for C[C@]12CCC(=O)C=C1CC[C@@H]1[C@@H]2C(=O)C[C@@]2(C)[C@H]1CC[C@]2(O)C(=O)CO [CORTISONE] , please.
inactive

And what about the compound C/C(=N\NC(N)=S)c1ccc(C2CCCCC2)cc1 ?
inactive

Also check CCN(CC)CC1CCCCN1CC(=O)N1c2ccccc2NC(=O)CC1C (stereo unspecified)
inactive

Please do the same for N#Cc1nc(CCC(c2nc(C#N)c(N)o2)N2C(=O)c3ccccc3C2=O)oc1N (stereo unspecified) as well.
inactive

Now try N#CC(C#N)=C1NC(=O)C(c2ccccc2)C(=O)N1 (stereo unspecified) .
inactive

Proceed to CS(=O)(=O)N(CC(=O)O)Cc1ccccc1
inactive

Please answer likewise for CCOc1cc(C2SCC(=O)N2c2ccc(Oc3ccc(Cl)cc3)c(Cl)c2)ccc1O (stereo unspecified)
inactive

Then Oc1c(C2=NNC(c3cccs3)C2)ccc2ccccc12 (stereo unspecified) ?
inactive

Continue with C[C@@H](c1ccccc1)N1CN(C(=O)OCc2ccccc2)C(CO)C1=O (stereo partly specified)
inactive

What about COc1ccc(C(C#N)NNC(=O)c2ccccc2O)cc1OC (stereo unspecified) ?
active
